target: Beta-lactamase L1 (Stenotrophomonas maltophilia, UniProt P52700); experiment: Inhibition of Stenotrophomonas maltophilia L1 overexpressed in Escherichia coli BL21 (DE3) using cefazolin as substrate incubated for 30 mins prior to testing by UV spectrophotometric analysis
Sequence (P52700 whole entry): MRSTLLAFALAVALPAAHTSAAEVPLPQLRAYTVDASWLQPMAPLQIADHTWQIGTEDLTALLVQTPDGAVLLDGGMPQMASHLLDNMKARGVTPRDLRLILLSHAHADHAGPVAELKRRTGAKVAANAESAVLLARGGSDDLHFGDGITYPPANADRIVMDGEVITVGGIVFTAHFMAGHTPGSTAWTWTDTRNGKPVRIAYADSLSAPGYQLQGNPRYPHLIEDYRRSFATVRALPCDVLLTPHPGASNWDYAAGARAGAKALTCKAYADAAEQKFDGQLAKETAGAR
# IC50 binned as low end = under 400 nM, middle = from 400 nM up to 900 nM, high end = 900 nM and over

>>> assigned_label("O=C(O)CSC(=O)[C@@H]1CCCN1C(=O)Cc1cccs1")
"middle"
>>> assigned_label("O=C(O)CSC(=O)CNC(=O)Cc1cccs1")
"middle"
>>> assigned_label("CSCC[C@H](NC(=O)Cc1cccs1)C(=O)SCC(=O)O")
"low end"
>>> assigned_label("O=C(O)CSC(=O)[C@H](Cc1ccccc1)NC(=O)Cc1cccs1")
"high end"
>>> assigned_label("CC(C)[C@H](NC(=O)Cc1cccs1)C(=O)SCC(=O)O")
"middle"
>>> assigned_label("O=C(O)CSC(=O)[C@H](CCCCNC(=O)Cc1cccs1)NC(=O)Cc1cccs1")
"high end"
>>> assigned_label("O=C(O)CSC(=O)[C@H](CO)NC(=O)Cc1cccs1")
"high end"
>>> assigned_label("O=C(O)CSC(=O)[C@H](Cc1c[nH]c2ccccc12)NC(=O)Cc1cccs1")
"low end"
>>> assigned_label("CC(C)C[C@H](NC(=O)Cc1cccs1)C(=O)SCC(=O)O")
"low end"

---

test: Inhibition of NDM1 (unknown origin) overexpressed in Escherichia coli BL21 (DE3) assessed as cefazolin MIC at 16 ug/ml after 12 hrs by macrodilution broth method
Quick reference for MIC among some molecules
Result type: MIC

>>> observed_measurement("CC(C)C[C@H](NC(=O)Cc1cccs1)C(=O)SCC(=O)O")
"4 µg/mL"
>>> observed_measurement("C[C@H](NC(=O)Cc1cccs1)C(=O)SCC(=O)O")
"4 µg/mL"
>>> observed_measurement("O=C(O)CSC(=O)[C@H](Cc1ccccc1)NC(=O)Cc1cccs1")
"8 µg/mL"
>>> observed_measurement("O=C(O)CSC(=O)[C@@H]1CCCN1C(=O)Cc1cccs1")
"8 µg/mL"

---

target: Metallo-beta-lactamase type 2 (Bacteroides fragilis, UniProt P25910); assay: Inhibition of Bacteroides fragilis CcrA overexpressed in Escherichia coli BL21 (DE3) using cefazolin as substrate incubated for 30 mins prior to testing by UV spectrophotometric analysis
Sequence (P25910 whole entry): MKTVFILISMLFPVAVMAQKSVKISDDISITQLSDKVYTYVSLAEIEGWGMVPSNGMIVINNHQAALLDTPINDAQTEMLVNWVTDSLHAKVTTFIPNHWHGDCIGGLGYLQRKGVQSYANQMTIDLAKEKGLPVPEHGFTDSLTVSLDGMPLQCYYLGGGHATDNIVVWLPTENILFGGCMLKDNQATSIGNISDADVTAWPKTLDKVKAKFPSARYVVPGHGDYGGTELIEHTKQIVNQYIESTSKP
pIC50: −log10 of the molar value.
Recorded pIC50, one value per entry.
Result type: pIC50

>>> observed_measurement("CC(C)[C@H](NC(=O)Cc1cccs1)C(=O)SCC(=O)O")
4.41
>>> observed_measurement("CSCC[C@H](NC(=O)Cc1cccs1)C(=O)SCC(=O)O")
3.91

---

# MIC annotations
experiment: Inhibition of NDM1 (unknown origin) overexpressed in Escherichia coli BL21 (DE3) assessed as cefazolin MIC at 16 ug/ml after 12 hrs by macrodilution broth method
Result type: MIC (µg/mL)

>>> observed_measurement("O=C(O)CSC(=O)[C@H](CO)NC(=O)Cc1cccs1")
8
>>> observed_measurement("O=C(O)CSC(=O)CNC(=O)Cc1cccs1")
4
>>> observed_measurement("O=C(O)CSC(=O)[C@H](Cc1c[nH]c2ccccc12)NC(=O)Cc1cccs1")
8
>>> observed_measurement("CSCC[C@H](NC(=O)Cc1cccs1)C(=O)SCC(=O)O")
8
>>> observed_measurement("O=C(O)CSC(=O)[C@H](CCCCNC(=O)Cc1cccs1)NC(=O)Cc1cccs1")
4
>>> observed_measurement("CC(C)[C@H](NC(=O)Cc1cccs1)C(=O)SCC(=O)O")
4
